Test system: HEK293T
Experiment: median enrichment of reporter reads in eGFP-reduced (low/intermediate) vs eGFP-high sorted cells (eGFP-extension fusion abundance) (ratio); higher = stronger loss of eGFP-fusion protein abundance (more destabilising extension)
In this section, each of the substances is paired with its reported median enrichment.
Reply briefly: the number, and no unit.

Previously resolved entries follow.
RGNLQAEEVSAAALLEPGRGLPVSQPGPATQDSWDIPCVTPLRPFGLAPWLSLREVALRLAIYIYNLFT [HK3]: 4.11
WGGLGCQCCRDPGCPGLWGRTGSPHPPTPAKGGASPESPPVRPSEPTSHPPSSQGVRAPDGPGRHPGGPATAGEGT [TMEM184A]: 2.58
SDPTSPSAFHWLCHGLYKQIIFPLFKIKSPNENLGM [PRSS37]: 5.12
RGLLPLGPLTLSGWWTTKYNPVYNLKIYFTFVLLYLFIKG [SMAD4]: 6.89

// switching to the query substance
Task item: Which measured median enrichment belongs to RENQHP [CRYBG3] , tested on HEK293T?;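 also: lentiviral eGFP-IRES-mCherry reporter pool sorted by FACS 96 h post-transduction, gated on mCherry-high cells, Illumina read counts normalized per million, median across four biological replicates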
Reply: 0.514
